Target: rat liver FBPase (Rattus norvegicus)
Sequence (P19112 2-363 limits assumed): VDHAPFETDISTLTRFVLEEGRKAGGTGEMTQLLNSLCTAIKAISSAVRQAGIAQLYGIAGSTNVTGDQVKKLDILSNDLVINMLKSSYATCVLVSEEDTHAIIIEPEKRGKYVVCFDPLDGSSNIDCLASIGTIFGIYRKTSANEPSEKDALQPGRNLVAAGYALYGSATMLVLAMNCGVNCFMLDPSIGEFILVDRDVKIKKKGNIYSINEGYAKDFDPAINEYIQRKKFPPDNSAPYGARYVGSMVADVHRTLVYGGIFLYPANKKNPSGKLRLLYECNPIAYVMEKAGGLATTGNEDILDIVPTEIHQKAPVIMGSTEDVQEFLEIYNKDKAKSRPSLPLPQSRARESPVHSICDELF
Experiment: In vitro Inhibition of Rat Liver FBPase
Details: assayed as for human liver FBPase
pIC50: −log10 of the molar value.
Items are presented alongside their recorded pIC50.

Below are worked cases with known answers.
# smiles notation, result
records = [
    ("O=P(O)(O)c1ccc(-c2[nH]c3ccccc3c2Br)o1", "< 4.70"),
    ("O=P(O)(O)c1ccc(-c2cc3ccccc3[nH]2)o1", "< 4.70"),
]

Exercise: Tell me measured pIC50 for Cc1cccn2c(CC(C)C)c(-c3ccc(P(=O)(O)O)o3)nc12 please.
Key: < 4.60

Exercise: Tell me measured pIC50 for Nc1cccn2c(-c3ccccc3)c(COCP(=O)(O)O)nc12 please.
Key: 4.05

Exercise: Tell me measured pIC50 for CC(C)Cn1c(-c2ccc(P(=O)(O)O)o2)cc2ccccc21 please.
Key: < 4.70

Exercise: Tell me measured pIC50 for O=P(O)(O)c1ccc(-c2[nH]c3ccccc3c2-c2ccccc2)o1 please.
Key: < 4.70

---

Items are presented alongside their recorded IC50.
Target: Mouse liver FBPase (Mus musculus)
Construct: Mouse liver FBPase is obtained by homogenizing freshly isolated mouse liver; 45-75% ammonium sulfate fraction, desalted
Sequence (Q9QXD6 2-338 limits assumed): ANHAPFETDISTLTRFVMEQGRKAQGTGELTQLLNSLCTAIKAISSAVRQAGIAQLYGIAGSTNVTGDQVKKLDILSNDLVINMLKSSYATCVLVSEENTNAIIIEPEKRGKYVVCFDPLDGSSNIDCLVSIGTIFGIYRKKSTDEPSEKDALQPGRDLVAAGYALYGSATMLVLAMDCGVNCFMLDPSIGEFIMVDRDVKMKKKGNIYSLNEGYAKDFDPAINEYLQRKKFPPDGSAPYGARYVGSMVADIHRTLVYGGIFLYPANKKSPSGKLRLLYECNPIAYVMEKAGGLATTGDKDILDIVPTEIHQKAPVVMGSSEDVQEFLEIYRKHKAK
Test: In vitro Inhibition of Mouse Liver FBPase
Details: partially purified mouse liver fraction, assayed as for human liver FBPase
Procedure: E. coli strain BL21 transformed with a human liver FBPase-encoding plasmid was obtained from Dr. M. R. El-Maghrabi at the State University of New York at Stony Brook. hIFBPase was typically purified from 10 liters of E. coli culture as described (M. Gidh-Jain et al., The Journal of Biological Chemistry 1994, 269, 27732-27738). […] Reactions were started by the addition of 0.002 units of pure hlFBPase and were monitored for 7 minutes at 590 nm in a Molecular Devices Plate Reader (37° C.). […]

Below are worked cases with known answers.
# smiles notation, tested target, IC50
rows = [
    ("O=P(O)(O)c1ccc(-c2[nH]c3ccccc3c2Br)o1", "Mouse liver FBPase (Mus musculus)", "> 20 µM"),
    ("CC(C)Cn1c(-c2ccc(P(=O)(O)O)o2)cc2ccccc21", "Mouse liver FBPase (Mus musculus)", "> 20 µM"),
]

Exercise: Tell me measured IC50 for O=P(O)(O)c1ccc(-c2cc3ccccc3[nH]2)o1 please.
Key: > 20 µM

Exercise: Tell me measured IC50 for O=P(O)(O)c1ccc(-c2[nH]c3ccccc3c2-c2ccccc2)o1 please.
Key: > 20 µM

Exercise: Tell me measured IC50 for Cc1cccn2c(CC(C)C)c(-c3ccc(P(=O)(O)O)o3)nc12 please.
Key: > 30 µM

---

Target: human liver FBPase (hlFBPase) (Homo sapiens, UniProt P09467)
Construct: made in house; host or cells: E. coli BL21 (transformed strain from Dr. M. R. El-Maghrabi, SUNY Stony Brook)
Sequence (P09467 2-338 limits assumed): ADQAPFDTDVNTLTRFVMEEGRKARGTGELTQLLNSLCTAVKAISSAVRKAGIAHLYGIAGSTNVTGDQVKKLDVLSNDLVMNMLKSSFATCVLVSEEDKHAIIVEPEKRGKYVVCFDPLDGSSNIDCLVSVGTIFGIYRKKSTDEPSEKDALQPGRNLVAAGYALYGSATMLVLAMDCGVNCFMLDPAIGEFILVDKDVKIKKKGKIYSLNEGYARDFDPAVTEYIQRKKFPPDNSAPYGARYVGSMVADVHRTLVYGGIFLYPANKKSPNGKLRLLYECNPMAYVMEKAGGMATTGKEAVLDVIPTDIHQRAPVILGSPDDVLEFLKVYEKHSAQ
Assay: Inhibition of Human Liver FBPase
Type: biochemical
Conditions: 0.150 mM fructose 1,6-bisphosphate, pH 7.4, 37° C.; read-out: HL FBPase IC50
value type: IC50 (µM)

# smiles notation, IC50 (µM)
records = [
    ("O=P(O)(O)c1ccc(-c2cc3ccccc3[nH]2)o1", 8.8),
    ("Nc1cccn2c(-c3ccccc3)c(COCP(=O)(O)O)nc12", 10),
    ("O=P(O)(O)c1ccc(-c2[nH]c3ccccc3c2Br)o1", 8.67),
    ("O=P(O)(O)c1ccc(-c2[nH]c3ccccc3c2-c2ccccc2)o1", 8.5),
    ("COc1ccc2[nH]c(C(=O)NCP(=O)(O)O)cc2c1", 60.6),
]

P: O=C(NCP(=O)(O)O)c1cn2ccccc2n1
Q: CC(C)Cn1c(-c2ccc(P(=O)(O)O)o2)cc2ccccc21
Exercise: Please tell me which of the two, P or Q , has the higher reported IC50 value. // output: label of the selected item
Key: P
(P: 90 µM, Q: 10.7 µM)
